Taken from paper PMC7967212.

Target: aromatase (CYP19) (Homo sapiens, UniProt P11511)
Sequence (P11511 whole entry): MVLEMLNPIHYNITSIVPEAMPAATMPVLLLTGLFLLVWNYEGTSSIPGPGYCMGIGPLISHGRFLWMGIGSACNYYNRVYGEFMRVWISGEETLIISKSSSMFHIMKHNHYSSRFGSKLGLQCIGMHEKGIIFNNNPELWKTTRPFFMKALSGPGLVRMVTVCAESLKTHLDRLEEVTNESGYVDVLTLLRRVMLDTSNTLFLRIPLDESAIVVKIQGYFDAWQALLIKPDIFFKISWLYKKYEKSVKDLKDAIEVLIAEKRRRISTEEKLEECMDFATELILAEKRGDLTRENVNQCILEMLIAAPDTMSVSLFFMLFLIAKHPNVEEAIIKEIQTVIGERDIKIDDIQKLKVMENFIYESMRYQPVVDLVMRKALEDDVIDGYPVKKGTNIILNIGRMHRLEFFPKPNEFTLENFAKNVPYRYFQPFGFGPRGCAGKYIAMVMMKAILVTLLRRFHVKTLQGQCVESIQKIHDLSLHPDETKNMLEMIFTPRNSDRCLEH
READOUT: pIC50
Scale: pIC50 equals -log10([C]), with [C] in mol/L.

Challenge: Recorded pIC50 of C=C1/C(=C\C=C2/CCC[C@]3(C)[C@@H]([C@H](C)CC[C@@H](O)C(C)C)CC[C@@H]23)C[C@@H](O)C[C@@H]1O , please.
Response given: 6.82
